meta.source: the RNAGym collection of RNA variant scans (doi:10.7554/elife.80360)

variants and their reported self-cleavage
B1: HDV Ribozyme (parent)
chain: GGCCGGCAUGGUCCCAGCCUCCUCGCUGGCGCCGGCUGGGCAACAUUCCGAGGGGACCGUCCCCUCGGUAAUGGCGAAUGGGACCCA

variants of: B1; experiment: self-cleavage, relative activity (ratio to wild type); higher = more cleavage; co-transcriptional
Format: numeric value only, no unit, no commentary.

Consider the worked cases shown below.
{"MUTATION NOTATION": "C21A A87C", "self-cleavage": 0.0742}
{"MUTATION NOTATION": "G5C C86A", "self-cleavage": 0.166}
{"MUTATION NOTATION": "G6U C57G", "self-cleavage": 0.491}

IN: Indicate its recorded self-cleavage; the variant in question is U9C C48U
OUT: 0.748

IN: Give self-cleavage for U12A C22A
OUT: 0

IN: Return reported self-cleavage. Input variant: G1C C49G
OUT: 0.0898

IN: State, in one line, measured self-cleavage of A56G G82A
OUT: 0.277
